I'd be grateful if you could share measured relative cell viability for these entries.
Tested on: TE10
protocol description: relative cell viability vs DMSO, compound + 0.2 uM CuET (fraction); higher = less cytotoxic
experimental context: 2 µM; co-treatment: CuET (bis(diethyldithiocarbamate)copper) 0.2 uM; 48 h
In all, about 2,000 compounds were measured (“relative cell viability vs DMSO, compound + 0.2 uM CuET”: median about 1, lowest 2% from about 0.25 on). Only a selection was taken, and the lowest values are over-represented in it overall.

Past entries and their recorded results:
>>> test_value("COc1ccc(Oc2cc(C)c(-c3csc(NC(=O)c4ccncc4)n3)c(C)c2)cc1")
0.89
>>> test_value("Cc1cc(Cl)ccc1OCCCC(=O)NO [Droxinostat]")
0.997
>>> test_value("CC(C)[C@H](C(=O)Nc1ccc(C(=O)NO)cc1)c1ccccc1")
0.178
>>> test_value("CCCCCCCCCCCCCCCc1cccc(O)c1C(=O)O [Anacardic Acid]")
1.26
>>> test_value("CC(C)(C)OC(=O)Nc1ccc(-c2cc(C(=O)NCCCCCCC(=O)NO)no2)cc1")
0.244
>>> test_value("COc1c2ccoc2cc2oc(=O)ccc12 [Bergapten]")
1.12
>>> test_value("CN(C)c1ccc(C(=O)NCCCCCCC(=O)NO)cc1")
0.322
>>> test_value("Cc1c(NC(=O)c2ccc(C(C)(C)C)cc2)cccc1-c1cn(C)c(=O)c(Nc2ccc(C(=O)N3CCOCC3)cc2)n1")
1.04
>>> test_value("NC1=N[C@@]2(c3cc(NC(=O)c4ccc(F)cn4)ccc3F)COC[C@H]2CS1")
0.948
>>> test_value("COc1ccc(C2=NC(c3ccc(Cl)cc3)C(c3ccc(Cl)cc3)N2C(=O)N2CCNC(=O)C2)c(OC(C)C)c1 (centres undefined) [Nutlin-3b]")
1.17

Dear colleague, could you please provide relative cell viability for the compounds listed below?
1. CC(=O)Nc1ccc(C(=O)Nc2ccccc2N)cc1 [CI994 (Tacedinaline)]
2. Cc1nc2ccc(-n3ncc(C(=O)c4cc5ccccc5[nH]4)c3N)cc2[nH]1
3. COc1nc(N)nc2c1ncn2[C@@H]1O[C@H](CO)[C@@H](O)[C@@H]1O [Nelarabine]
4. COC(=O)CCSCc1ccc(-c2onc(C)c2NC(=O)OC(C)c2ccccc2Cl)cc1 (centres undefined)
5. CS(=O)(=O)Nc1ccc([N+](=O)[O-])cc1Oc1ccccc1 [Nimesulide]
6. Cc1cc(C)cc(C(=O)NOCCCCCC(=O)NO)c1
7. COc1ccc(C[C@H](N)C(=O)N[C@H]2[C@@H](O)[C@H](n3cnc4c(N(C)C)ncnc43)O[C@@H]2CO)cc1 [Puromycin 2HCl]
8. N#CC(=Cc1ccc(-c2cc(Cl)ccc2Cl)o1)C(=O)Nc1cccc2ncccc12

Response:
1: 1.23; 2: 0.987; 3: 1.21; 4: 0.919; 5: 1.08; 6: 0.23; 7: 0.249; 8: 1.06

# compound C=CC(=O)N1CCN(C(=O)CNc2cc(I)c(Cl)cc2O)CC1 [K-Ras(G12C) inhibitor 12] ; its relative cell viability = 1.06

###

Tested on: TE10
protocol description: relative cell viability vs DMSO, compound + 0.2 uM CuET (fraction); TE10 is an esophageal squamous carcinoma line; higher = less cytotoxic
experimental context: 2 µM; co-treatment: CuET (bis(diethyldithiocarbamate)copper) 0.2 uM; 48 h
Whole data set: some 2,000 compounds, median “relative cell viability vs DMSO, compound + 0.2 uM CuET” near 1, cut for the lowest 2% near 0.25. The sample as a whole holds a higher share of the lowest values than the screen did.
I'd be grateful if you could share measured relative cell viability for these entries.
Numbers only.

>>> test_value("CN(C)c1cc(NC(=O)CNC(C)(C)C)c(O)c2c1CC1CC3C(N(C)C)C(=O)C(C(N)=O)=C(O)C3(O)C(=O)C1=C2O (stereo not drawn)")
0.994
>>> test_value("O=C(Nc1cccc2cccnc12)c1ccc(N2C(=O)C3C4C=CC(C4)C3C2=O)cc1 (stereo not drawn) [IWR-1-endo]")
0.994

Turning now to a further compound:
# compound O=C1C(c2c(O)[nH]c3ccccc23)=Nc2ccccc21 ; its relative cell viability = 0.978
